assay: qHTS Assay for Spectroscopic Profiling in 4-MU Spectral Region; conditions: compound autofluorescence, 340/450 nm, 4-MU equivalents; stronger effect = higher value
Out of some 59,000 compounds screened, about 6,200 (11%) were called active. Roughly 9% stayed inconclusive and do not appear here. The sample holds actives, similar compounds and a random draw of the others, so the mix is not that of the screen.
VALUE TYPE: max dye-equivalent concentration

Guide cases for max dye-equivalent concentration, answers given:
[
  {
    "COMPOUND": "CCOC(=O)C(C(=O)OCC)C(C#N)c1ccccc1 (stereo unspecified)",
    "RESULT": "inactive"
  },
  {
    "COMPOUND": "COc1ccccc1Cc1nc(-c2ccc(C)cc2)no1",
    "RESULT": "16 nM (active)"
  },
  {
    "COMPOUND": "CC(=O)Nc1ccc(-c2nn3c(C)nnc3s2)cc1C",
    "RESULT": "inactive"
  },
  {
    "COMPOUND": "COC(=O)Cc1cc(=O)n(-c2nc3ccccc3s2)[nH]1",
    "RESULT": "inactive"
  }
]

## Task Can you share its max dye-equivalent concentration? I mean this compound: c1ccc(-c2nnc3n2NC(c2ccc4c(c2)OCO4)S3)cc1 (stereo unspecified)
## Result inactive

## Task Can you share its max dye-equivalent concentration? I mean this compound: Fc1ccc(-c2ccc(-c3nn4c(-c5ccco5)nnc4s3)o2)cc1
## Result 51 nM (active)

###

experiment: qHTS Assay for Spectroscopic Profiling in 4-MU Spectral Region; conditions: compound autofluorescence, 340/450 nm, 4-MU equivalents
About 6,200 (11%) of roughly 59,000 compounds were called active. About 9% were inconclusive and are not listed. Rule as the data show it: active = max dye-equivalent concentration above about 10 nM; inconclusive = mostly about 1.1 nM to 9.6 nM; inactive = weaker than that. The full list was thinned out, with actives kept by preference.
Reply using exactly one outcome from true (1) for active, false (0) for inactive

## Task Field: outcome | Entry: Cc1c(S(=O)(=O)O)ccc(N=Nc2c(O)c(C(=O)O)cc3ccccc23)c1Cl
## Result true (1)

## Task Field: outcome | Entry: COc1cc(OC)cc(C(=O)Nc2ccc(-c3nc4ccccc4o3)c(O)c2)c1
## Result true (1)

## Task Field: outcome | Entry: CCCCN(C)Cc1c(C)[nH]c2ccc(Cl)cc2c1=O
## Result false (0)

## Task Field: outcome | Entry: CN1CCN(C(=O)c2ccc(NS(=O)(=O)c3ccccc3)cc2)CC1
## Result false (0)

## Task Field: outcome | Entry: O=C(Nc1cccc2c1CCCC2)C1CCN(C(=O)NC2CCCCC2)CC1
## Result false (0)

###

experiment: qHTS Assay for Spectroscopic Profiling in 4-MU Spectral Region; settings: compound autofluorescence, 340/450 nm, 4-MU equivalents
About 6,200 (11%) of roughly 59,000 compounds were called active. Another 9% or so got no clear call; they are omitted. No stated cut-off is given here; in the data, active means max dye-equivalent concentration above about 10 nM; inconclusive means mostly about 1.1 nM to 9.6 nM; inactive means weaker than that. Shown is part of a subset that was picked to be rich in actives.
Reply using exactly one outcome from active, inactive

Look over these answered cases.
[
  {
    "COMPOUND": "Cc1noc(COc2ccccc2OCC(O)CNC(C)(C)C)n1 (centres undefined)",
    "CLASS NAME": "inactive"
  },
  {
    "COMPOUND": "Cc1cccn2c(=O)c3cc(C(=O)NCc4ccccn4)n(C)c3nc12",
    "CLASS NAME": "active"
  },
  {
    "COMPOUND": "Cc1ccc(C(c2nnnn2CS(=O)(=O)c2ccc(C)cc2)N2CCC(C(N)=O)CC2)cc1 (centres undefined)",
    "CLASS NAME": "inactive"
  }
]

## Task Field: outcome | Entry: CCN(CC)c1ccc(C(=O)OCC(=O)c2ccco2)cc1
## Result inactive

## Task Field: outcome | Entry: O=C(NCc1ccco1)c1nc2ncccn2n1
## Result inactive

## Task Field: outcome | Entry: CCOC(=O)C1C(=O)OC2(CCCC2)C1C(=O)OCC (centres undefined)
## Result inactive

## Task Field: outcome | Entry: Cc1ccc(Oc2ccc(N)cc2)cc1
## Result inactive

## Task Field: outcome | Entry: CC1Cc2ccccc2N1C(=O)Cn1cnc2ccccc2c1=O (centres undefined)
## Result inactive

###

test: qHTS Assay for Spectroscopic Profiling in 4-MU Spectral Region; details: compound autofluorescence, 340/450 nm, 4-MU equivalents
The campaign covered roughly 59,000 compounds. About 6,200 (11%) were called active. Inconclusive results (about 9%) are left out. Cut-off read from the data, not from the text of the source: active = max dye-equivalent concentration above about 10 nM; inconclusive = mostly about 1.1 nM to 9.6 nM; inactive = weaker than that. The full list was thinned out, with actives kept by preference.
Reply using exactly one outcome from T = active, F = inactive

Look over these answered cases.
[
  {
    "MOLECULE": "CCC(C)(C)n1nnnc1C(c1cccs1)N1CCN(Cc2ccccc2)CC1 (centres undefined)",
    "CLASS NAME": "F"
  },
  {
    "MOLECULE": "COC(=O)COc1ccc(S(=O)(=O)Nc2ccc(NC(C)=O)cc2)cc1",
    "CLASS NAME": "F"
  },
  {
    "MOLECULE": "COc1ccccc1Nc1ncc(C(C)=O)c(C)n1",
    "CLASS NAME": "F"
  },
  {
    "MOLECULE": "CCN(Cc1ccncc1)C(=O)[C@@H](CO)c1ccccc1",
    "CLASS NAME": "F"
  },
  {
    "MOLECULE": "O=S(=O)(c1cccs1)N1CCc2ccccc2C1",
    "CLASS NAME": "F"
  },
  {
    "MOLECULE": "CCCOc1ccc(NC(=O)C2CCCNC2=O)cc1 (centres undefined)",
    "CLASS NAME": "F"
  },
  {
    "MOLECULE": "CN(C)CCNC(CC(=O)Nc1ccc(Cl)c(Cl)c1)C(=O)O (centres undefined)",
    "CLASS NAME": "F"
  },
  {
    "MOLECULE": "CCN1CCN(c2ncnc3c2oc2nc(C)c4c(c23)CC(C)(C)OC4)CC1",
    "CLASS NAME": "F"
  }
]

Lab note: next molecule to report on.
## Task Field: outcome | Entry: COc1ccc(S(=O)(=O)Nc2ccc3c(c2)OCO3)cc1Cl
## Result F

###

assay: qHTS Assay for Spectroscopic Profiling in 4-MU Spectral Region; conditions: compound autofluorescence, 340/450 nm, 4-MU equivalents
Among all 59,000 compounds or so, about 6,200 (11%) were called active. Not shown: some 9% with an inconclusive outcome. Cut-off read from the data, not from the text of the source: active = max dye-equivalent concentration above about 10 nM; inconclusive = mostly about 1.1 nM to 9.6 nM; inactive = weaker than that. This excerpt belongs to a sample that is enriched for actives.
Reply using exactly one outcome from label 1 for active, label 0 for inactive

Look over these answered cases.
[
  {
    "MOLECULE": "COc1cccc(Nc2ncc3ncc(=O)n(C4CC4)c3n2)c1",
    "CLASS NAME": "label 0"
  },
  {
    "MOLECULE": "O=c1cnc2cnc(Nc3ccccc3)nc2n1Cc1ccc(F)cc1",
    "CLASS NAME": "label 0"
  },
  {
    "MOLECULE": "COc1ccccc1N1CCN(C(=O)CSc2nnc(-c3ccoc3C)o2)CC1",
    "CLASS NAME": "label 0"
  },
  {
    "MOLECULE": "COc1ccc(-c2cc3ccc(OCc4nn[nH]n4)cc3oc2=O)cc1",
    "CLASS NAME": "label 1"
  },
  {
    "MOLECULE": "COc1ccc(CCN(Cc2cc3cccc(C)c3[nH]c2=O)C(=O)N2CCCC2)cc1OC",
    "CLASS NAME": "label 0"
  }
]

## Task Field: outcome | Entry: CCc1nnc(NC(=O)CSc2nnc(Cc3ccccc3)n2-c2ccc(OC)cc2)s1
## Result label 0

## Task Field: outcome | Entry: CCOC(=O)N1CCN(CC(=O)Nc2cc(C)nn2-c2nc3ccccc3s2)CC1
## Result label 0

## Task Field: outcome | Entry: COc1ccc2[nH]c3ccc(OC)cc3c2c1
## Result label 1

## Task Field: outcome | Entry: COc1cc2cc(CN(CCN3CCCC3)C(=O)Nc3ccccc3Cl)c(=O)[nH]c2cc1OC
## Result label 1

## Task Field: outcome | Entry: COc1ccc(-n2c(C)nc3c(cnn3-c3ccccc3)c2=O)cc1
## Result label 0

## Task Field: outcome | Entry: CCOC(=O)N1CCN(C(=O)C2CCN(c3ncnc4c3sc3cccc(F)c34)CC2)CC1
## Result label 1

## Task Field: outcome | Entry: OCc1nc(CO)n(Cc2ccccc2)n1
## Result label 0

## Task Field: outcome | Entry: CSCCC(NS(=O)(=O)/C=C/c1ccccc1)C(=O)N1CCC(C)CC1 (stereo not drawn)
## Result label 0

###

assay: qHTS Assay for Spectroscopic Profiling in 4-MU Spectral Region; conditions: compound autofluorescence, 340/450 nm, 4-MU equivalents; stronger effect = higher value
The whole screen tested about 59,000 compounds, of which about 6,200 (11%) were called active. About 9% were inconclusive and are not listed. The sample holds actives, similar compounds and a random draw of the others, so the mix is not that of the screen.
VALUE TYPE: max dye-equivalent concentration

Guide cases for max dye-equivalent concentration, answers given:
[
  {
    "COMPOUND": "O=C(Nc1c[nH]c(=O)[nH]c1=O)Oc1ccccc1",
    "max dye-equivalent concentration": "inactive"
  },
  {
    "COMPOUND": "C=CCn1c(SCc2nnc(-c3ccccc3)o2)nnc1C(O)c1ccccc1 (stereo not given)",
    "max dye-equivalent concentration": "inactive"
  },
  {
    "COMPOUND": "CCOc1ccc2nc(NC(=O)CSc3nc4c(c(=O)n(C)c(=O)n4C)n3CC)sc2c1",
    "max dye-equivalent concentration": "inactive"
  },
  {
    "COMPOUND": "CCOc1ccc(N=NS(=O)(=O)O)cc1",
    "max dye-equivalent concentration": "inactive"
  },
  {
    "COMPOUND": "COc1cccc(NC(=O)Cn2cnc3sc(C)c(S(=O)(=O)N4CCN(C)CC4)c3c2=O)c1",
    "max dye-equivalent concentration": "inactive"
  },
  {
    "COMPOUND": "O=c1[nH]c(-c2cccs2)nc2ccccc12",
    "max dye-equivalent concentration": "inactive"
  },
  {
    "COMPOUND": "Cc1cccc(N(CC(O)CN(C)C)S(=O)(=O)c2ccccc2)c1 (stereo not given)",
    "max dye-equivalent concentration": "inactive"
  },
  {
    "COMPOUND": "Cc1cc(=O)[nH]c(SCc2cc(Cl)ccc2OC(F)F)n1",
    "max dye-equivalent concentration": "inactive"
  },
  {
    "COMPOUND": "Fc1ccc(-c2nnc(CSc3nnc(-c4ccc5c(c4)OCO5)o3)o2)cc1",
    "max dye-equivalent concentration": "inactive"
  }
]

// next entry
## Task Can you share its max dye-equivalent concentration? I mean this compound: COC(=O)c1cc(NC(=O)CN2CCC(C(N)=O)(N3CCCCC3)CC2)cc(C(=O)OC)c1
## Result inactive
